Test system: RAW264.7
assay.details: Antiinflammatory activity against mouse RAW264.7 cells assessed as inhibition of LPS-induced NO production at 10 uM preincubated for 1 hrs followed by LPS stimulation and measured after 24 hrs by Griess assay relative to control
Type: functional
experimental.conditions: time 25 hrs
reported.endpoint: inhibition at 10 µM
Give your result as the value with the unit written after it.

Consider the worked cases shown below.
> print(dat)
                                   compound  experimental.system    reported.endpoint  readout.value
1  CCCc1nn(C)c2c(NCc3ccc(F)cc3)nc(/C=C/c3cccnc3)nc12             RAW264.7  inhibition at 10 µM          61.3%
2  COc1cc(/C=C/c2nc(OCc3ccccc3)c3sccc3n2)cc(OC)c1OC             RAW264.7  inhibition at 10 µM          33.8%
3  CCCc1nn(C)c2c(NC3CC3)nc(/C=C/c3ccc[n+]([O-])c3)nc12             RAW264.7  inhibition at 10 µM          29.2%
4  COc1cc(/C=C/c2nccc(NCCc3ccccc3)n2)cc(OC)c1OC             RAW264.7  inhibition at 10 µM            85%
5  COc1ccc(Nc2nc(/C=C/c3ccccc3)nc3ccsc23)cc1             RAW264.7  inhibition at 10 µM          21.9%
6  COc1cc(/C=C/c2nc(Cl)cc(NC(C)C)n2)cc(OC)c1OC             RAW264.7  inhibition at 10 µM            29%
7  CCCc1nn(C)c2c(N3CCS(=O)(=O)CC3)nc(/C=C/c3cccnc3)nc12             RAW264.7  inhibition at 10 µM          60.2%
8  COc1cc(/C=C/c2nc(NC3CC3)c3sccc3n2)cc(OC)c1OC             RAW264.7  inhibition at 10 µM          90.7%

*Q* Request the reported inhibition at 10 µM associated with CNc1nc(/C=C/c2ccco2)nc2ccsc12
*A* 29.1%

*Q* Check CCCc1nn(C)c2c(N3CCOCC3)nc(/C=C/c3ccc[n+]([O-])c3)nc12 too.
*A* 20.8%

* * *

Tested on: RAW264.7
assay.details: Antiinflammatory activity against mouse RAW264.7 cells assessed as inhibition of LPS-induced NO production at 10 uM preincubated for 1 hrs followed by LPS stimulation and measured after 24 hrs by Griess assay relative to control
Type: functional
experimental.conditions: time 25 hrs
reported.endpoint: inhibition at 10 µM (%)
Give the value, in units of %, as a plain number.

Consider the worked cases shown below.
> print(dat)
                                        smi    reported.endpoint  units.symbol  readout.value
1   CCCc1nn(C)c2c(NC3CC3)nc(CCc3cccnc3)nc12  inhibition at 10 µM             %           7.29
2  COc1cc(/C=C/c2nc(Nc3ccc(O)cc3)c3sccc3n2)cc(OC)c1OC  inhibition at 10 µM             %           97.7
3  COc1cc(/C=C/c2nc(NCc3ccccc3Cl)c3sccc3n2)cc(OC)c1OC  inhibition at 10 µM             %           21.9

Turning to the following molecule.
*Q* Request the reported inhibition at 10 µM associated with COc1cc(/C=C/c2nc(NCc3ccncc3)c3sccc3n2)cc(OC)c1OC
*A* 76
